Target: Peroxisome proliferator-activated receptor gamma (Homo sapiens) (UniProt P37231)
Sequence (P37231 whole entry, looked up): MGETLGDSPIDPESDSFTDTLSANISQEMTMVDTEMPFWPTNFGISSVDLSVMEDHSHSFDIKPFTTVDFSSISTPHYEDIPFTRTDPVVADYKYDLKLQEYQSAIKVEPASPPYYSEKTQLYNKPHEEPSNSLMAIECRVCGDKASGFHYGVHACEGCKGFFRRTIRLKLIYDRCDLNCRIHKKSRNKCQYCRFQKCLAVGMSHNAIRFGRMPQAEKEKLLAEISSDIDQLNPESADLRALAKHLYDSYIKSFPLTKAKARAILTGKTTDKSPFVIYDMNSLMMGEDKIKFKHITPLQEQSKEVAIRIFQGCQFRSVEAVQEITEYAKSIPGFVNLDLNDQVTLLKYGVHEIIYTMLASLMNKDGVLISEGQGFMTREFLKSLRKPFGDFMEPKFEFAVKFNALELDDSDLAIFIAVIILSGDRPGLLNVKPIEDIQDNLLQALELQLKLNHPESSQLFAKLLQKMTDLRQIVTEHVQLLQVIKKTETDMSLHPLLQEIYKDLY
Assay: qHTS assay to identify small molecule agonists of the peroxisome proliferator-activated receptor gamma (PPARg) signaling pathway (AID 743094)
Conditions: HEK293H PPARg-UAS-bla, beta-lactamase FRET ratio, 17 h; series mostly up to 57 µM
Inconclusive results are not listed. Active and inactive are the calls of the source. The call rests on the fitted dose curve; in most records, active means well fitted activation curve with a large enough effect in the signal ratio in the repeat runs (not every such curve was filed as active); inconclusive means weak or mixed curves, or effect the other way; inactive means no such curve, though single readings can be large or run the other way; the % refers to the signal ratio.
Response enum: active, inactive

Problem: Each compound tested received a call. Report the one for `CCOC(C)=O` .
Result: inactive

Problem: Same question for `O=C(O)CCc1nc(-c2ccccc2)c(-c2ccccc2)o1` please.
Result: active

Problem: Same question for `Cc1ccccc1S` please.
Result: inactive

Problem: Same question for `C[C@@H](O[C@H]1OCCN(Cc2n[nH]c(=O)[nH]2)[C@H]1c1ccc(F)cc1)c1cc(C(F)(F)F)cc(C(F)(F)F)c1` please.
Result: inactive

Problem: Same question for CCOC(=O)OC(C)OC(=O)[C@@H]1N2C(=O)[C@@H](NC(=O)[C@H](N)c3ccccc3)[C@H]2SC1(C)C (stereo partly specified) please.
Result: inactive

Problem: Same question for CC1(C)S[C@@H]2[C@H](NC(=O)C(c3ccccc3)S(=O)(=O)O)C(=O)N2[C@H]1C(=O)O (stereo partly specified) please.
Result: inactive

Problem: Same question for `COC(=O)CS` please.
Result: inactive

Problem: Same question for `CCn1cc(C(=O)O)c(=O)c2cc(F)c(N3CCNCC3)cc21` please.
Result: inactive

Problem: Same question for `CC(=O)c1ccc([N+](=O)[O-])cc1` please.
Result: inactive

Problem: Same question for `c1ccc2sc(SN(C3CCCCC3)C3CCCCC3)nc2c1` please.
Result: inactive

Problem: Same question for `C=C(C)C(=O)OCCOCCOC(=O)C(=C)C` please.
Result: inactive
